Biological target: human GSDMD (full-length) (Homo sapiens)
Sequence (P57764 1-484): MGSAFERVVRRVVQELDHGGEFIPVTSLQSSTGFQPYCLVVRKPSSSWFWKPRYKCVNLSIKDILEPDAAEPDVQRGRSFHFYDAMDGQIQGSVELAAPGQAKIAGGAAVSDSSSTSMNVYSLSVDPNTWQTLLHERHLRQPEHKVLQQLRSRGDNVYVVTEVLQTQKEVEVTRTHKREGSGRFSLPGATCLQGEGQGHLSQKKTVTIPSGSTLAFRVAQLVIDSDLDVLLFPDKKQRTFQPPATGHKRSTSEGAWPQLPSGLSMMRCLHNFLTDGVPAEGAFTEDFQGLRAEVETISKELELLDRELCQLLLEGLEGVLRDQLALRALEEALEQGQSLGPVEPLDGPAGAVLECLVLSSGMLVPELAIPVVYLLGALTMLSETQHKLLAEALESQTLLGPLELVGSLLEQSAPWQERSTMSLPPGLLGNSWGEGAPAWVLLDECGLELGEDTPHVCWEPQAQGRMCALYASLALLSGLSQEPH
Assay: Tb3+/DPA liposome leakage
Details: covalent (Cys191); 1 h preincubation; cleavage by 0.15 µM caspase-11; no Cu(II)
Measurement name: pIC50
Give only the number. pIC50 is defined as minus log10 of concentration in molar units.

IN: For the compound CCN(CC)C(=S)SSC(=S)N(CC)CC [C-23, Tetraethylthiuram disulfide] , give its reported pIC50.
OUT: 6.52

All figures here come from paper doi:10.1101/365908v1.
